Values from patent US20030113810A1

# studyTarget: rGPR41 (Rattus norvegicus)
# assayExplanation: Yeast FUS1-lacZ/FUS1-HIS3 reporter assay, rGPR41 in S. cerevisiae MMY22 (Gpa1/Gαo), FDG substrate
# Assay type: cell-based
# Parameters: expressed in transfected cells; host or cells: S. cerevisiae MMY22 (A1, A5; Gpa1/Gαo integrated) or MMY11 + pRS314-Gpa1/Gαo (A4), transformed with p426GPD-rGPR41
# statedConditions: yeast MMY22, text of Example 8; read-out: EC50 value at rGPR41
# Description: A study was carried out of the function of rGPR41 following expression in S. cerevisiae MMY22, which is a derivative of S. cerevisiae MMY11 containing a copy of the gene encoding the Gpa1/Gαo transplant chimera described above (in which the 5 C-terminal amino acids of Gpa1 are replaced with the 5 C-terminal amino acids of Gαo) integrated into the genome. […]
propertyLabel: EC50 (µM)
The answer is to be given in µM; state only the numeric part.

Query string: Item under review: CCC(=O)O [Propionate] . Reported EC50?
Result string: 5

---

# studyTarget: rGPR41 (Rattus norvegicus, UniProt B2GV46)
# Sequence (B2GV46 whole entry): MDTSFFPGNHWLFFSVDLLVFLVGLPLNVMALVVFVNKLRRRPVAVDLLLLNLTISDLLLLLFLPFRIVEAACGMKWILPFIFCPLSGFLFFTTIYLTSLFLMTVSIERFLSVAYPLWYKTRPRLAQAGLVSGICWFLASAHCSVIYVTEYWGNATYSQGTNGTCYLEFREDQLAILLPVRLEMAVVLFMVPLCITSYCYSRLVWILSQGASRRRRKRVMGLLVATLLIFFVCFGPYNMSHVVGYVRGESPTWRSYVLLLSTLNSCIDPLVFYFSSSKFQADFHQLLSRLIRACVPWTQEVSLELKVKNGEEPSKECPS
# assayExplanation: Yeast FUS1-lacZ/FUS1-HIS3 reporter assay, rGPR41 in S. cerevisiae MMY22 (Gpa1/Gαo), FDG substrate
# Format: cell-based
# Design: expressed in transfected cells; host or cells: S. cerevisiae MMY22 (A1, A5; Gpa1/Gαo integrated) or MMY11 + pRS314-Gpa1/Gαo (A4), transformed with p426GPD-rGPR41
# statedConditions: yeast MMY22 with p462GPD-rGPR41; FDG fluorescence; compounds as salt solutions buffered to pH 7.0
propertyLabel: Agonism @ rGPR41 Approx. EC50 (M)

Completed entries (count: 7):
{"compound": "O=C(O)C(O)C(O)C(=O)O (centres unmarked) [Tartrate]", "measured": "Inactive"}
{"compound": "CC(=O)C(=O)O [pyruvate]", "measured": "Inactive"}
{"compound": "O=C(O)CC(=O)O [malonate]", "measured": "Inactive"}
{"compound": "O=C(O)/C=C\\C(=O)O [maleate]", "measured": "Inactive"}
{"compound": "O=C(O)C(F)(F)F [Trifluoroacetate]", "measured": "weak active"}
{"compound": "O=C(O)CO [glycolate]", "measured": "weak active"}
{"compound": "CC(=O)CC(=O)O [Acetoacetate]", "measured": "weak active"}

Consider now this further compound.
Query string: Short answer please: Agonism @ rGPR41 Approx. EC50 (M), rGPR41 (Rattus norvegicus, UniProt B2GV46), entry CS(=O)(=O)O [methylsulphonate]
Result string: Inactive
